- Test system: U251 CNS
- assay remarks: NCI-60 one-dose screen, 48 h
- condition summary: 10 µM unless noted
Compounds without any hit were thinned out: in the full panel of roughly 83,000, 20% have a hit. Calls of active or inactive are those of the source. How the source made its calls: active means growth percent below 10; inactive means the rest.
Possible outcomes: true (1) (active), false (0) (inactive)

compound	measured target	cat
Cc1ccccc1-c1nc(C(Cl)Cl)nc2cc(-c3ccccc3)nn12	U251 CNS	false (0)
CC1(C)CC[C@]2(C(=O)NCCNCCN)CC[C@]3(C)C(=CC[C@@H]4[C@@]5(C)CCC(=O)C(C)(C)[C@@H]5CC[C@]43C)[C@@H]2C1	U251 CNS	true (1)
COc1ccc(-c2n/c(=C\c3c(O)[nH]c4ccc(OC)cc34)cc3c2=Nc2ccccc2-3)cc1	U251 CNS	true (1)
CCNCCCn1c2c(c3ccc([N+](=O)[O-])cc3c1=O)C(=O)c1cc(OC)cnc1-2	U251 CNS	true (1)
O=c1c2sc3ncc(Br)cc3c2ncn1-c1cccc(Cl)c1	U251 CNS	false (0)
O=S(=O)(NCCNc1cc(-c2cn(-c3ccccc3)nc2-c2cccc(O)c2)ccn1)c1ccccc1	U251 CNS	false (0)
COc1cc(-c2cc(-c3nc4ccccc4[nH]3)[nH]n2)cc(OC)c1OC	U251 CNS	false (0)
COC(c1ccccc1)(c1ccccc1)c1ccccc1	U251 CNS	false (0)
Cn1cc(-c2csc(-c3cn(CCNC(=O)OC(C)(C)C)c4ccccc34)n2)c2cccnc21	U251 CNS	false (0)
N#CC1=C(N)Oc2ccc3ccccc3c2C1c1ccccc1 (stereo unspecified)	U251 CNS	false (0)
CC1=CC(=O)N(c2cccc3c(N4C(=O)C=C(C)C4=O)cccc23)C1=O	U251 CNS	false (0)
CC(=O)O[C@H]1CC[C@]2(C)[C@H]3C(=O)C=C4[C@@H]5C[C@](C)(C(=O)N6CCCNCC6)CC[C@]5(C)CC[C@@]4(C)[C@]3(C)CC[C@H]2C1(C)C	U251 CNS	true (1)
COc1cc2[nH]c(C(=O)c3cc(OC)c(OC)c(OC)c3)c(N)c2cc1C#CC1CC1	U251 CNS	false (0)
O=C1/C(=C\c2ccc(Br)o2)SC(=S)N1CCc1ccc(O)cc1	U251 CNS	false (0)
N#Cc1cnc2cc(OC[C@@H](O)CO)c(NC(=O)C3CCCC3)cc2c1Nc1ccc(OCc2cccc(F)c2)c(Cl)c1	U251 CNS	false (0)
COc1ccc2c(c1)C(Br)=C(CCO)C2c1ccccc1 (stereo unspecified)	U251 CNS	false (0)
Cn1c(=O)c2c(nc(N3CCCC3)n2C)n(C)c1=O	U251 CNS	false (0)
CCCCCCCN(CCCCCCC)C(=N)c1ccnc2ccccc12	U251 CNS	true (1)
Clc1ccccc1-c1nc(Nc2nc3ccccc3s2)nc(C(Cl)(Cl)Cl)n1	U251 CNS	false (0)
CCCCC[C@H]1CC=C2C(=O)C=C[C@@H]2CC=CCCCC(=O)O[C@@H](CCCCC)CC=C2C(=O)C=C[C@@H]2CC=CCCCC(=O)O[C@@H](CCCCC)CC=C2C(=O)C=C[C@@H]2CC=CCCCC(=O)O1	U251 CNS	true (1)
Brc1cnc2[nH]cc(-c3nnc(-c4ccccc4)o3)c2c1	U251 CNS	false (0)
OCC12CCCC(CO)(COC1)C2O (stereo unspecified)	U251 CNS	false (0)
CCN1CCN(C(=O)[C@]23CCC(C)(C)C[C@@H]2C2=CC[C@@H]4[C@@]5(C)C/C(=C/c6cccnc6)C(=O)C(C)(C)[C@@H]5CC[C@@]4(C)[C@]2(C)CC3)CC1	U251 CNS	true (1)
CCC(CC)C(=O)OC(C)COc1ccc(C(C)(C)C)cc1 (stereo unspecified)	U251 CNS	false (0)
O=C(O)c1cccc2c1-c1ccc(Cl)cc1C2	U251 CNS	false (0)
O=C(/C=C/c1cccc(O)c1)c1ccccc1O	U251 CNS	false (0)
